Values compiled from patent US5606037A.

Tested on: T47D (Ductal carcinoma of breast)
experimental_details: In vitro cytotoxicity, microculture tetrazolium (MTT) assay, T47D
Format: cell-based, Human
condition_context: Homo sapiens, 48 h with compound, further 48 h, Table 1
pIC50: −log10 of the molar value.
Everything with pIC50 lower than 5 is false (0); everything else, including exactly 5, is true (1).

Example results:
{"columns": ["compound", "class"],
 "data": [
  ["CC(=O)[C@@H]1CC2=C(C(=O)c3ccccc3C2=O)[C@@H](O[C@@H]2O[C@@H](C)[C@@H](O)[C@@H](O)[C@H]2I)O1", "true (1)"],
  ["CC(=O)C1CC2=C(C(=O)c3ccccc3C2=O)C(O[C@H]2C[C@H](NC(=O)C(F)(F)F)[C@H](OS(C)(=O)=O)[C@H](C)O2)O1 (mixture of isomers)", "true (1)"],
  ["CC(=O)C1CC2=C(C(=O)c3ccccc3C2=O)C(OC[C@@H]2CCCN2C(=O)OC(C)(C)C)O1 (mixture of isomers)", "true (1)"],
  ["CC(=O)[C@H]1CC2=C(C(=O)c3ccccc3C2=O)[C@H](O[C@@H]2O[C@@H](C)[C@@H](O)[C@@H](O)[C@H]2I)O1", "false (0)"]
]}

Please examine the following record next.
Input line: Determine whether measured pIC50 meets or exceeds 5 for CO[C@@H]1O[C@@H](C(=O)Nc2ccccc2)CC2=C1C(=O)c1ccccc1C2=O (relative stereo)
Output line: true (1)
